Tested on: MRC5 cells
Assay: Cell viability assay in MRC5 cells (MTT)
Settings: 100 nM
Structures can show the parent of a compound that is named as a salt.

| Compound | Cell viability at 100 nM (%) |
| --- | --- |
| COC(=O)c1cc2c(cc1C)/C(=C(/Nc1ccc(C(=O)NCCN3CCN(S(C)(=O)=O)CC3)cc1)c1ccccc1)C(=O)N2 | 98.4 |
| COC(=O)c1cc2c(cc1C)/C(=C(/Nc1ccc(C(=O)NCCCN3CCOCC3)cc1)c1ccccc1)C(=O)N2 | 116.9 |
| COC(=O)c1cc2c(cc1C)/C(=C(/Nc1ccc(C(=O)NCCC(=O)N3CCN(C)CC3)cc1)c1ccccc1)C(=O)N2 | 85 |
| CNC(=O)CN1CCN(C(=O)c2ccc(N/C(=C3\C(=O)Nc4cc(C(=O)OC)c(C)cc43)c3ccccc3)cc2)CC1 | 82 |
| COC(=O)c1cc2c(cc1C)/C(=C(/Nc1ccc(C(=O)NCCN3CCNC(=O)C3)cc1)c1ccccc1)C(=O)N2 | 102 |
| COC(=O)c1cc2c(cc1C)/C(=C(/Nc1ccc(C(=O)NC3CCN(CCO)CC3)cc1)c1ccccc1)C(=O)N2 | 84.3 |
| COC(=O)c1cc2c(cc1C)/C(=C(/Nc1ccc(C(=O)NCCN3CCN(C(C)=O)CC3)cc1)c1ccccc1)C(=O)N2 | 125.2 |
| COC(=O)c1cc2c(cc1C)/C(=C(/Nc1ccc(C(=O)N(CCO)CCN(C)C)cc1)c1ccccc1)C(=O)N2 | 99.3 |
| COC(=O)c1cc2c(cc1C)/C(=C(/Nc1ccc(C(=O)NCC3(N(C)C)CCC3)cc1)c1ccccc1)C(=O)N2 | 95.4 |
| COC(=O)c1cc2c(cc1C)/C(=C(/Nc1ccc(C(=O)N3CCC(C(N)=O)(N4CCCCC4)CC3)cc1)c1ccccc1)C(=O)N2 | 143.1 |
| COC(=O)c1cc2c(cc1C)/C(=C(/Nc1ccc(C(=O)NCCN3CCC(F)(F)CC3)cc1)c1ccccc1)C(=O)N2 | 90.7 |
| COC(=O)c1cc2c(cc1C)/C(=C(/Nc1ccc(C(=O)NCCN3CCC(CO)CC3)cc1)c1ccccc1)C(=O)N2 | 82.5 |
| CNC(=O)CN(C)CCNC(=O)c1ccc(N/C(=C2\C(=O)Nc3cc(C(=O)OC)c(C)cc32)c2ccccc2)cc1 | 110.2 |
| COC(=O)c1cc2c(cc1C)/C(=C(/Nc1ccc(C(=O)NCCN3CCCN(C(C)=O)CC3)cc1)c1ccccc1)C(=O)N2 | 82.9 |
| COC(=O)c1cc2c(cc1C)/C(=C(/Nc1ccc(C(=O)NCCN3CCNC(=O)CC3)cc1)c1ccccc1)C(=O)N2 | 89.1 |
| COCCN1CCC(NC(=O)c2ccc(N/C(=C3\C(=O)Nc4cc(C(=O)OC)c(C)cc43)c3ccccc3)cc2)CC1 | 92.6 |
| COC(=O)c1cc2c(cc1C)/C(=C(/Nc1ccc(S(=O)(=O)NCCN3CCN(C)CC3)cc1)c1ccccc1)C(=O)N2 | 103.6 |
| COC(=O)c1cc2c(cc1C)/C(=C(/Nc1ccc(C(=O)NCCN3CCS(=O)(=O)CC3)cc1)c1ccccc1)C(=O)N2 | 81.3 |
| COCCN(C)CCNC(=O)c1ccc(N/C(=C2\C(=O)Nc3cc(C(=O)OC)c(C)cc32)c2ccccc2)cc1 | 99.8 |
| COC(=O)c1cc2c(cc1C)/C(=C(/Nc1ccc(C(=O)NCC(=O)N3CCN(CCO)CC3)cc1)c1ccccc1)C(=O)N2 | 102.9 |
| COC(=O)c1cc2c(cc1C)/C(=C(/Nc1ccc(C(=O)NCCN3CCCN(C)CC3)cc1)c1ccccc1)C(=O)N2 | 91.5 |
| COC(=O)c1cc2c(cc1C)/C(=C(/Nc1ccc(C(=O)NC3CCN(C)CC3)cc1)c1ccccc1)C(=O)N2 [Example 18, formate] | 98.2 |
| COC(=O)c1cc2c(cc1C)/C(=C(/Nc1ccc(C(=O)NCC3CCN(C)CC3)cc1)c1ccccc1)C(=O)N2 [Example 3, formate] | 88 |
| COC(=O)c1cc2c(cc1C)/C(=C(/Nc1ccc(C(=O)NCCN3CCC(O)CC3)cc1)c1ccccc1)C(=O)N2 | 92.2 |
| COC(=O)c1cc2c(cc1C)/C(=C(/Nc1ccc(C(=O)NCCN3CCNC(=O)C3)c(F)c1)c1ccccc1)C(=O)N2 | 79.4 |
| COC(=O)c1cc2c(cc1C)/C(=C(/Nc1ccc(C(=O)NCC3CCN(CCO)CC3)cc1)c1ccccc1)C(=O)N2 [Example 50] | 116.2 |
| COC(=O)c1cc2c(cc1C)/C(=C(/Nc1ccc(C(=O)N3CCN(C)CC3)cc1)c1ccccc1)C(=O)N2 | 76.2 |
| COC(=O)c1cc2c(cc1C)/C(=C(/Nc1ccc(C(=O)NCCN(C)CCO)cc1)c1ccccc1)C(=O)N2 | 113 |
| COC(=O)c1cc2c(cc1C)/C(=C(/Nc1ccc(C(=O)NCCCN3CCN(C)CC3)cc1)c1ccccc1)C(=O)N2 [Example 21, formate] | 139.6 |
